These data points were gathered from the supplement of paper PMC10567573.

Method summary: protein stability index of a GFP-peptide fusion (GPS, HEK-293T) (PSI 1-6); higher = more stable;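 also: 24-mer peptide tiles fused after GFP, lentivirally expressed, FACS-sorted into six equal bins by GFP/DsRed ratio, decoded by Illumina sequencing, PSI is the read-weighted mean bin number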
Condition set: treatment: MLN4924 1 uM, 8 h; c terminus: a fixed tail appended

{"Residues": "EIEQYRLQREKEFKAKEAAALGSR [ATP6V1G1]", "protein stability index": 3.77}
{"Residues": "METNGSTEGSRSRSRSLDIQPSSE [SPAG8]", "protein stability index": 5.35}
{"Residues": "FDEKIVPILKRKLPGSDVSGRLMG [FBXO28]", "protein stability index": 3.48}
{"Residues": "HIDIVKELIKWRAAIVVNGHGMTP [FEM1B]", "protein stability index": 2.17}
{"Residues": "RTRRRLSRNRDPGRLILSTIRLRP [PWWP2B]", "protein stability index": 4.32}
{"Residues": "WDPACLPLPPPPPAFKSMEVANFY [CEBPB]", "protein stability index": 3.28}
{"Residues": "PILSRSTSTGSAASSGSNSSASSE [SPRY1]", "protein stability index": 5.44}
{"Residues": "FVGDLSPEITTEDIKAAFAPFGRI [TIA1]", "protein stability index": 2.7}
{"Residues": "RLASYLDKVRALEEANADLEVKIH [KRT15]", "protein stability index": 2.67}
{"Residues": "ELNHGRQGENQEHLVIAEMMELGS [FATE1]", "protein stability index": 4.27}
{"Residues": "IYLSTSSSKFYDLFLMDLSEGELG [RHOBTB2]", "protein stability index": 2.9}
{"Residues": "ECPSMGTNEAACLLDNPLCADVLF [RHOBTB1]", "protein stability index": 3.94}
{"Residues": "SKYADLSDAANRNHEALRQAKQEM [PRPH]", "protein stability index": 4.89}
{"Residues": "GCSQFRLAVLDWNQRAMDLYKALG [SAT2]", "protein stability index": 2.02}
{"Residues": "SAEINQDLNIQLLKDGYRLDEIPD [FAM219A]", "protein stability index": 5.08}
{"Residues": "EVDWEYFYGLLFTSENLKLVHIVC [DFFB]", "protein stability index": 2.56}
{"Residues": "FLTHFILMNDVIDTSGFPDLSDNR [FBXO33]", "protein stability index": 2.27}
{"Residues": "RTYFHEFGHVMHQICAQVSFFFPP [NLN]", "protein stability index": 3.41}
{"Residues": "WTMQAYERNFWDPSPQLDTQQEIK [WDR41]", "protein stability index": 3.46}
{"Residues": "EEKMETKTESSGIETEPTVHHLPL [EPB41L3]", "protein stability index": 5.49}
{"Residues": "SKIGFGILLSKEPDGVWAYNRGEH [SMAD6]", "protein stability index": 2.71}
{"Residues": "PEMNGNGAVAPMDFTTAAEDQPIN [NOL4L]", "protein stability index": 5.47}
{"Residues": "DLTSSSSDELSWIIELLEKDGMAF [ELF3]", "protein stability index": 3.19}
{"Residues": "TNDGNHPSCQETRDYAPPSRGYAY [RBMY1A1]", "protein stability index": 4.36}
{"Residues": "AQAQALAAQAAAAAHAAQAHRERN [PI4K2A]", "protein stability index": 4.8}
{"Residues": "RRVLPCIPSEEWPNPPTLQEAGLS [FAF2]", "protein stability index": 3.79}
{"Residues": "AKDMKKAVAHMKYMGKGSMTGLAL [MATN2]", "protein stability index": 2.37}
{"Residues": "LISQCGKPVVNVSYRPAYDQGGPV [DUSP5]", "protein stability index": 2.6}
{"Residues": "TPPTTTAEIATASASASTTTTVTA [SNAP91]", "protein stability index": 5.3}
{"Residues": "VVEKLNLFLDLLQSYKDLCERHEK [SNX8]", "protein stability index": 2.23}
{"Residues": "TSGMGFHAPKIGSNGVEMAAKFPS [SDE2]", "protein stability index": 3.5}
{"Residues": "LQEVPTGLDSISHDSANCELPLLT [ETS2]", "protein stability index": 4.92}
{"Residues": "RADSFKVSYQLADGGEPQSVQVDG [TNXB]", "protein stability index": 5.01}
{"Residues": "ADRQCQLTFGPDSRHCPQLPPPCA [ADAMTS4]", "protein stability index": 4.08}
{"Residues": "FGVAVVITNQVVAQVDGAAMFAAD [RAD51]", "protein stability index": 2.96}
{"Residues": "VLFLDHVMYTIHMGCHGFRDPFEC [IKZF1]", "protein stability index": 2.96}
{"Residues": "SHCDSPSPQEDGQIMFDVEMHTSR [BNIP3L]", "protein stability index": 4.8}
{"Residues": "ASLGREESRAPSPLLHKDSASLEV [CBY2]", "protein stability index": 4.85}
{"Residues": "FYRSTAPSEDIWKKFELVPSPPTS [MYCL]", "protein stability index": 2.76}
{"Residues": "QVQQVEVEATVKPELTAALRDIRA [PRPH]", "protein stability index": 4.32}
{"Residues": "AAENEFVLLKKDVDAAYANKVELQ [KRT71]", "protein stability index": 4.54}
{"Residues": "IFNYMRLGSTKLSDKDKAVGIFNT [OR3A1]", "protein stability index": 2.36}
{"Residues": "DCDTSSICEDSFDGRSLSKLNLCE [SCARA5]", "protein stability index": 5.05}
{"Residues": "EELMLVHSLEYIDLMETTQYMNEG [HDAC6]", "protein stability index": 3.41}
{"Residues": "QSHDDLSNATATPSVRKKAGSFSR [C2CD2L]", "protein stability index": 4.67}
{"Residues": "PRTNEWTYVAKMSEPHYGHAGTVY [KLHL13]", "protein stability index": 2.61}
{"Residues": "TYRSLLESEDCKLPCNPCATTNAS [KRT34]", "protein stability index": 4.09}
{"Residues": "VKLNVGGSLHYTTLRTLTGQDTML [KCTD13]", "protein stability index": 2.27}
{"Residues": "KQLKPWCWYCNRDFDDEKILIQHQ [ZNF207]", "protein stability index": 2.46}
{"Residues": "KLYTGPGLAIHCMQVHKETIDAVP [ZNF207]", "protein stability index": 2.61}
{"Residues": "ECVASNNVGEISVSTRLTVLREDQ [PTPRD]", "protein stability index": 4.54}
{"Residues": "EKTGPQLTSRIKGDWIGLYRHFLK [DENND6A]", "protein stability index": 2.08}
{"Residues": "VYKDGEHGEEQRITIEPGTSYRLQ [PTPRD]", "protein stability index": 5.03}
